assay_explanation: activity coefficient (dimensionless); of the first substance listed, at infinite dilution; xn = mol fraction of the nth substance listed
run_parameters: 318.15 K; 101 kPa; Liquid; Chromatography; x1 = 0
activity coefficient by entry:
Answer with a bare number; do not write a unit.

Example entries and their recorded answers appear below.
>>> recorded_measurement("COC(C)(C)C [2-methoxy-2-methylpropane] + CC[S+](CC)CC.O=S(=O)([N-]S(=O)(=O)C(F)(F)F)C(F)(F)F")
2.96
>>> recorded_measurement("C1CCCC1 [cyclopentane] + CC[S+](CC)CC.O=S(=O)([N-]S(=O)(=O)C(F)(F)F)C(F)(F)F")
9.31
>>> recorded_measurement("C1CCCCCCC1 [cyclooctane] + CC[S+](CC)CC.O=S(=O)([N-]S(=O)(=O)C(F)(F)F)C(F)(F)F")
24.5
>>> recorded_measurement("O [water] + CC[S+](CC)CC.O=S(=O)([N-]S(=O)(=O)C(F)(F)F)C(F)(F)F")
3.39
>>> recorded_measurement("C#CCCCCCC [1-octyne] + CC[S+](CC)CC.O=S(=O)([N-]S(=O)(=O)C(F)(F)F)C(F)(F)F")
7.51
>>> recorded_measurement("CCCCO [butan-1-ol] + CC[S+](CC)CC.O=S(=O)([N-]S(=O)(=O)C(F)(F)F)C(F)(F)F")
2.96
>>> recorded_measurement("c1ccsc1 [thiophene] + CC[S+](CC)CC.O=S(=O)([N-]S(=O)(=O)C(F)(F)F)C(F)(F)F")
0.943
>>> recorded_measurement("C=CCCCCC [1-heptene] + CC[S+](CC)CC.O=S(=O)([N-]S(=O)(=O)C(F)(F)F)C(F)(F)F")
16.1
>>> recorded_measurement("CCO [ethanol] + CC[S+](CC)CC.O=S(=O)([N-]S(=O)(=O)C(F)(F)F)C(F)(F)F")
1.77
>>> recorded_measurement("Cc1ccccc1 [toluene] + CC[S+](CC)CC.O=S(=O)([N-]S(=O)(=O)C(F)(F)F)C(F)(F)F")
1.58

response.value for c1ccccc1 [benzene] + CC[S+](CC)CC.O=S(=O)([N-]S(=O)(=O)C(F)(F)F)C(F)(F)F (field: activity coefficient) = 1.11

response.value for CCc1ccccc1 [ethylbenzene] + CC[S+](CC)CC.O=S(=O)([N-]S(=O)(=O)C(F)(F)F)C(F)(F)F (field: activity coefficient) = 2.43

response.value for CCCO [propan-1-ol] + CC[S+](CC)CC.O=S(=O)([N-]S(=O)(=O)C(F)(F)F)C(F)(F)F (field: activity coefficient) = 2.24

response.value for C1CCCCCC1 [cycloheptane] + CC[S+](CC)CC.O=S(=O)([N-]S(=O)(=O)C(F)(F)F)C(F)(F)F (field: activity coefficient) = 18

response.value for C#CCCCCC [1-heptyne] + CC[S+](CC)CC.O=S(=O)([N-]S(=O)(=O)C(F)(F)F)C(F)(F)F (field: activity coefficient) = 5.21

response.value for CCCCCCCCC [nonane] + CC[S+](CC)CC.O=S(=O)([N-]S(=O)(=O)C(F)(F)F)C(F)(F)F (field: activity coefficient) = 68.6

###

assay_explanation: activity coefficient (dimensionless); of the first substance listed, at infinite dilution; xn = mol fraction of the nth substance listed
run_parameters: 308.15 K; 101 kPa; Liquid; Chromatography; x1 = 0
quantity_kind: activity coefficient

Example entries and their recorded answers appear below.
>>> recorded_measurement("CCCCC [pentane] + CC[S+](CC)CC.O=S(=O)([N-]S(=O)(=O)C(F)(F)F)C(F)(F)F")
19.9
>>> recorded_measurement("CCCCCCCCC [nonane] + CC[S+](CC)CC.O=S(=O)([N-]S(=O)(=O)C(F)(F)F)C(F)(F)F")
77.6
>>> recorded_measurement("c1ccccc1 [benzene] + CC[S+](CC)CC.O=S(=O)([N-]S(=O)(=O)C(F)(F)F)C(F)(F)F")
1.1

response.value for C=CCCCC [hex-1-ene] + CC[S+](CC)CC.O=S(=O)([N-]S(=O)(=O)C(F)(F)F)C(F)(F)F (field: activity coefficient) = 11.8

###

activity coefficient by entry:
assay_explanation: activity coefficient (dimensionless); of the first substance listed, at infinite dilution; xn = mol fraction of the nth substance listed
run_parameters: 348.15 K; 101 kPa; Liquid; Chromatography; x1 = 0
Answer with a bare number; do not write a unit.

response.value for C1CCOC1 [tetrahydrofuran] + CC[S+](CC)CC.O=S(=O)([N-]S(=O)(=O)C(F)(F)F)C(F)(F)F (field: activity coefficient) = 0.859

response.value for Cc1ccc(C)cc1 [1,4-dimethylbenzene] + CC[S+](CC)CC.O=S(=O)([N-]S(=O)(=O)C(F)(F)F)C(F)(F)F (field: activity coefficient) = 2.36

response.value for C=CCCCCCC [oct-1-ene] + CC[S+](CC)CC.O=S(=O)([N-]S(=O)(=O)C(F)(F)F)C(F)(F)F (field: activity coefficient) = 19.2

response.value for Cc1ccccc1C [1,2-dimethylbenzene] + CC[S+](CC)CC.O=S(=O)([N-]S(=O)(=O)C(F)(F)F)C(F)(F)F (field: activity coefficient) = 2.12

response.value for C#CCCC [1-pentyne] + CC[S+](CC)CC.O=S(=O)([N-]S(=O)(=O)C(F)(F)F)C(F)(F)F (field: activity coefficient) = 2.55

response.value for CCCCC [pentane] + CC[S+](CC)CC.O=S(=O)([N-]S(=O)(=O)C(F)(F)F)C(F)(F)F (field: activity coefficient) = 14.6

response.value for CCCCCCCC [octane] + CC[S+](CC)CC.O=S(=O)([N-]S(=O)(=O)C(F)(F)F)C(F)(F)F (field: activity coefficient) = 36.3

response.value for C1CCCCCCC1 [cyclooctane] + CC[S+](CC)CC.O=S(=O)([N-]S(=O)(=O)C(F)(F)F)C(F)(F)F (field: activity coefficient) = 18.7

response.value for C1CCCC1 [cyclopentane] + CC[S+](CC)CC.O=S(=O)([N-]S(=O)(=O)C(F)(F)F)C(F)(F)F (field: activity coefficient) = 7.7

response.value for CCCCCC [hexane] + CC[S+](CC)CC.O=S(=O)([N-]S(=O)(=O)C(F)(F)F)C(F)(F)F (field: activity coefficient) = 19.2

response.value for C=CCCC [1-pentene] + CC[S+](CC)CC.O=S(=O)([N-]S(=O)(=O)C(F)(F)F)C(F)(F)F (field: activity coefficient) = 7.17

response.value for C#CCCCC [1-hexyne] + CC[S+](CC)CC.O=S(=O)([N-]S(=O)(=O)C(F)(F)F)C(F)(F)F (field: activity coefficient) = 3.56

response.value for C1CCCCC1 [cyclohexane] + CC[S+](CC)CC.O=S(=O)([N-]S(=O)(=O)C(F)(F)F)C(F)(F)F (field: activity coefficient) = 10.7

###

assay_explanation: activity coefficient (dimensionless); of the first substance listed, at infinite dilution; xn = mol fraction of the nth substance listed
run_parameters: 328.15 K; 101 kPa; Liquid; Chromatography; x1 = 0
activity coefficient by entry:
Answer with a bare number; do not write a unit.

Example entries and their recorded answers appear below.
>>> recorded_measurement("Cc1cccc(C)c1 [1,3-dimethylbenzene] + CC[S+](CC)CC.O=S(=O)([N-]S(=O)(=O)C(F)(F)F)C(F)(F)F")
2.33
>>> recorded_measurement("C#CCCCC [1-hexyne] + CC[S+](CC)CC.O=S(=O)([N-]S(=O)(=O)C(F)(F)F)C(F)(F)F")
3.58

response.value for C1CCCC1 [cyclopentane] + CC[S+](CC)CC.O=S(=O)([N-]S(=O)(=O)C(F)(F)F)C(F)(F)F (field: activity coefficient) = 8.72

response.value for C=CCCCCC [1-heptene] + CC[S+](CC)CC.O=S(=O)([N-]S(=O)(=O)C(F)(F)F)C(F)(F)F (field: activity coefficient) = 15.2

response.value for CCCCC [pentane] + CC[S+](CC)CC.O=S(=O)([N-]S(=O)(=O)C(F)(F)F)C(F)(F)F (field: activity coefficient) = 16.8

response.value for C=CCCC [1-pentene] + CC[S+](CC)CC.O=S(=O)([N-]S(=O)(=O)C(F)(F)F)C(F)(F)F (field: activity coefficient) = 7.72

response.value for O [water] + CC[S+](CC)CC.O=S(=O)([N-]S(=O)(=O)C(F)(F)F)C(F)(F)F (field: activity coefficient) = 2.97

###

activity coefficient by entry:
assay_explanation: activity coefficient (dimensionless); of the first substance listed, at infinite dilution; xn = mol fraction of the nth substance listed
run_parameters: 368.15 K; 101 kPa; Liquid; Chromatography; x1 = 0
Answer with a bare number; do not write a unit.

Example entries and their recorded answers appear below.
>>> recorded_measurement("C1CCCCC1 [cyclohexane] + CC[S+](CC)CC.O=S(=O)([N-]S(=O)(=O)C(F)(F)F)C(F)(F)F")
9.43
>>> recorded_measurement("C1CCCCCC1 [cycloheptane] + CC[S+](CC)CC.O=S(=O)([N-]S(=O)(=O)C(F)(F)F)C(F)(F)F")
12.2
>>> recorded_measurement("CCCCCCCCCC [decane] + CC[S+](CC)CC.O=S(=O)([N-]S(=O)(=O)C(F)(F)F)C(F)(F)F")
59.7
>>> recorded_measurement("Cc1ccccc1C [1,2-dimethylbenzene] + CC[S+](CC)CC.O=S(=O)([N-]S(=O)(=O)C(F)(F)F)C(F)(F)F")
2.15

response.value for Cc1ccc(C)cc1 [1,4-dimethylbenzene] + CC[S+](CC)CC.O=S(=O)([N-]S(=O)(=O)C(F)(F)F)C(F)(F)F (field: activity coefficient) = 2.4

response.value for CCCO [propan-1-ol] + CC[S+](CC)CC.O=S(=O)([N-]S(=O)(=O)C(F)(F)F)C(F)(F)F (field: activity coefficient) = 1.46

response.value for Cc1cccc(C)c1 [1,3-dimethylbenzene] + CC[S+](CC)CC.O=S(=O)([N-]S(=O)(=O)C(F)(F)F)C(F)(F)F (field: activity coefficient) = 2.39
